For each record, write down the corresponding Bliss interaction score.
Test system: B. subtilis 168
Test: Bliss interaction score (quartile over a dose matrix) (fitness difference); higher = more antagonism (negative = synergy);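 note: first quartile when negative (synergy) and third quartile when positive (antagonism)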
One number for each entry.

These recorded examples may help you get a feel for the data.
Dear colleague, I am looking for the recorded Bliss interaction score of the following molecule: CO/N=C(\C(=O)N[C@@H]1C(=O)N2C(C(=O)O)=C(COC(N)=O)CS[C@H]12)c1ccco1 [Cefuroxime] + O=C(O)[C@H]1/C(=C/CO)O[C@@H]2CC(=O)N21 [Clavulanic]
-0.0417

Sample CC(=O)Oc1ccccc1C(=O)O [Acetylsalicylicacid] + Cc1onc(-c2ccccc2)c1C(=O)N[C@@H]1C(=O)N2[C@@H]1SC(C)(C)[C@@H]2C(=O)O [Oxacillin] — what was its Bliss interaction score?
0.0506

Please examine the following record next.
Fill blank: measured Bliss interaction score of the molecule CO/N=C(\C(=O)N[C@@H]1C(=O)N2C(C(=O)O)=C(COC(N)=O)CS[C@H]12)c1ccco1 [Cefuroxime] + CC(=O)O[C@H]1C[C@@]2(C)[C@@H](C[C@@H](O)[C@H]3[C@@]4(C)CC[C@@H](O)[C@@H](C)[C@@H]4CC[C@@]32C)/C1=C(\CCC=C(C)C)C(=O)O [Fusidic acid] is ____.
0.137

---

Record form. Attribute: Bliss interaction score. Fill in for each entry.
Test system: S. aureus DSM 20231
Assay: Bliss interaction score (quartile over a dose matrix) (fitness difference); higher = more antagonism (negative = synergy)
Give bare numbers.

Item CO/N=C(\C(=O)N[C@@H]1C(=O)N2C(C(=O)O)=C(COC(N)=O)CS[C@H]12)c1ccco1 [Cefuroxime] + CC[C@H]1OC(=O)[C@H](C)[C@@H](O[C@H]2C[C@@](C)(OC)[C@@H](O)[C@H](C)O2)[C@H](C)[C@@H](O[C@@H]2O[C@H](C)C[C@H](N(C)C)[C@H]2O)[C@](C)(OC)C[C@@H](C)C(=O)[C@H](C)[C@@H](O)[C@]1(C)O [Clarithromycin] has what recorded Bliss interaction score?
-0.249

Recorded Bliss interaction score of COc1cccc2c1C(=O)c1c(O)c3c(c(O)c1C2=O)C[C@@](O)(C(=O)CO)C[C@@H]3O[C@H]1C[C@H](N)[C@H](O)[C@H](C)O1 [Doxorubicin] + CO[C@@]12[C@H](COC(N)=O)C3=C(C(=O)C(C)=C(N)C3=O)N1C[C@@H]1N[C@@H]12 [MitomycinC] , please.
-0.0314

Can you share its Bliss interaction score? I mean this molecule: O=C(O)c1cn(C2CC2)c2cc(N3CCNCC3)c(F)cc2c1=O [Ciprofloxacin] + CCC[C@@H]1C[C@@H](C(=O)N[C@@H]([C@H]2O[C@H](SC)[C@H](O)[C@@H](O)[C@H]2O)[C@@H](C)O)N(C)C1 [Lincomycin]
0.208

Attention now shifts to the item below.
Need Bliss interaction score, item CC(=O)Oc1ccccc1C(=O)O [Acetylsalicylicacid] + CCCCc1nc(Cl)c(CO)n1Cc1ccc(-c2ccccc2-c2nnn[nH]2)cc1 [Losartan]
0.178

---

System: S. aureus DSM 20231
Assay: Bliss interaction score (quartile over a dose matrix) (fitness difference); higher = more antagonism (negative = synergy)
property label: Bliss interaction score
Numbers only.

I would be grateful if you could share the reported Bliss interaction score for N#CC(C#N)=NNc1cccc(Cl)c1 [CCCP] + CC[C@H]1OC(=O)[C@H](C)[C@@H](O[C@H]2C[C@@](C)(OC)[C@@H](O)[C@H](C)O2)[C@H](C)[C@@H](O[C@@H]2O[C@H](C)C[C@H](N(C)C)[C@H]2O)[C@](C)(OC)C[C@@H](C)C(=O)[C@H](C)[C@@H](O)[C@]1(C)O [Clarithromycin] .
-0.0461

Recorded Bliss interaction score for O=C(O)c1cn(C2CC2)c2cc(N3CCNCC3)c(F)cc2c1=O [Ciprofloxacin] + CN[C@@H]1[C@H](O)[C@H](NC)[C@H]2O[C@@]3(O)C(=O)C[C@@H](C)O[C@H]3O[C@@H]2[C@H]1O [Spectinomycin] , please?
0.0785

For the molecule CN(C)[C@@H]1C(O)=C(C(N)=O)C(=O)[C@@]2(O)C(O)=C3C(=O)c4c(O)ccc(Cl)c4[C@@](C)(O)[C@H]3C[C@@H]12 [Clortetracycline] + COc1c(N2C[C@@H]3CCCN[C@@H]3C2)c(F)cc2c(=O)c(C(=O)O)cn(C3CC3)c12 [Moxifloxacin] , what Bliss interaction score is on record?
0.119

What value of Bliss interaction score has been reported for the following molecule? CO/N=C(\C(=O)N[C@@H]1C(=O)N2C(C(=O)O)=C(COC(C)=O)CS[C@H]12)c1csc(N)n1 [Cefotaxime] + COc1c(N2C[C@@H]3CCCN[C@@H]3C2)c(F)cc2c(=O)c(C(=O)O)cn(C3CC3)c12 [Moxifloxacin]
-0.0497

Now for the molecule whose Bliss interaction score we want.
Param item = C[C@@H]1O[C@@H]1P(=O)(O)O [Fosfomycin] + CN(C)c1cc(NC(=O)CNC(C)(C)C)c(O)c2c1C[C@H]1C[C@H]3[C@H](N(C)C)C(O)=C(C(N)=O)C(=O)[C@@]3(O)C(O)=C1C2=O [Tigecycline] ; retrieve measured Bliss interaction score.
0.044

Value source: the supplement of paper PMC10627819
